- Tested on: SR
- protocolDetails: NCI tumour cell line growth inhibition, 48 h
Calls of active or inactive are those of the source. Cut-off read from the data, not from the text of the source: active = GI50 up to about 1.1 µM and inactive = higher.
Respond with a class label; see active, inactive

Req: Would you mind telling me which call this test gave CN1CCN2CCN(C)CCN(CC1)CC2 ?
Resp: inactive

Req: Would you mind telling me which call this test gave S=C(N/N=C/c1ccccn1)Nc1ccc(Cl)cc1 ?
Resp: active

Req: Would you mind telling me which call this test gave CC(=O)NC(C)(C)C1CCC(C)CC1 (stereo not given) ?
Resp: inactive

Req: Would you mind telling me which call this test gave Cc1cc(Br)cc(C)c1NC(=O)C(=O)Nn1c(S)nc2ccccc2c1=O ?
Resp: inactive

Req: Would you mind telling me which call this test gave COc1cc(C2S/C(=C/c3ccccc3)C(=O)N2c2ccc(Cl)cc2)cc(OC)c1OC (stereo not given) ?
Resp: inactive

Req: Would you mind telling me which call this test gave Cc1cc(Cl)nc2nc(Cl)c(N)cc12 ?
Resp: inactive

Req: Would you mind telling me which call this test gave Cc1c(C)c2c(c(N)c1C#N)C(=O)N(OS(=O)(=O)c1ccccc1)C2=O ?
Resp: inactive

Req: Would you mind telling me which call this test gave Oc1cc(-c2ccccc2)c2ccccc2n1 ?
Resp: inactive

Req: Would you mind telling me which call this test gave CC1=C(C#N)C(=O)N(/N=C/c2ccc(Cl)cc2)C(=O)/C1=c1\o/c(=C2/C(=O)N(/N=C/c3ccc(Cl)cc3)C(=O)C(C#N)=C2C)c2nccnc12 ?
Resp: inactive

Req: Would you mind telling me which call this test gave COc1cccc(C2c3cc4c(cc3OC(N3CCCC3)C2C)OCO4)c1OC (stereo not given) ?
Resp: inactive

All values here come from ChEMBL document CHEMBL1201862.
